Value source: paper PMC5970065

Target: myeloperoxidase (MPO) (Homo sapiens, UniProt P05164)
Sequence (P05164 165-273): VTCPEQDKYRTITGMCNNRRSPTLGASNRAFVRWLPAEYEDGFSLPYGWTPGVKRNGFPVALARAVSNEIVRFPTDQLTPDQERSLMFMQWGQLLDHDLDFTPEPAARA
Sequence (P05164 279-745): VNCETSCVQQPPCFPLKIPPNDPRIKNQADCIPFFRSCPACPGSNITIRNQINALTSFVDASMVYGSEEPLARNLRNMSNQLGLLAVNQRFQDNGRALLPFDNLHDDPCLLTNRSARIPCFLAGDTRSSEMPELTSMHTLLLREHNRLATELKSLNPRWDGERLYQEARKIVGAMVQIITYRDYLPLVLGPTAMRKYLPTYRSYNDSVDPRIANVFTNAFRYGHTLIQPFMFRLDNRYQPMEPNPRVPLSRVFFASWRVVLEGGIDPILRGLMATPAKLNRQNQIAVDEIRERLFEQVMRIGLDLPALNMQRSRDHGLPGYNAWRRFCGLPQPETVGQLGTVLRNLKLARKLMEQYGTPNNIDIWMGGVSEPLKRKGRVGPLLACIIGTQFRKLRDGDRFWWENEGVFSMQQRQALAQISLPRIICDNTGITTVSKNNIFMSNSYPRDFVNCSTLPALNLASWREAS
pIC50: −log10 of the molar value.
Quantity Measured: pIC50

1) COc1cc(CC(CO[C@@H]2O[C@H](CO)[C@@H](O)[C@H](O)[C@H]2O)C(CO[C@@H]2O[C@H](CO)[C@@H](O)[C@H](O)[C@H]2O)Cc2ccc(O)c(OC)c2)ccc1O (stereo partly shown) ... 4.20
